system: SJSA-1; assay: cells; type: functional, cell-based, Homo sapiens; conditions: Homo sapiens, SJSA-1;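 further: growth inhibition of human SJSA-1 cells, read out through a cell viability measurement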
Description: SANGER: Inhibition of human SJSA-1 cell growth in a cell viability assay.
pIC50: −log10 of the molar value.
measurement_label: pIC50

• COc1ccc(-c2cc3nccn3c(Nc3ncccc3C(N)=O)n2)cc1OC = 5.42
• OC[C@H](Cc1ccccc1)Nc1nc(Oc2ccc3c(c2)CCC3)nc2c1ncn2Cc1ccc(-c2ccccc2)cc1 = 5.59
• CCCCCCCCCCCC1=C(O)C(=O)C=C(O)C1=O = 5.37
• CN(NC(=O)CC(=O)NN(C)C(=S)c1ccccc1)C(=S)c1ccccc1 = 7.91
• CC(C)C[C@H](NC(=O)[C@H](Cc1ccccc1)NC(=O)c1cnccn1)B(O)O = 8.65
• Nc1ccccc1NC(=O)c1ccc(CNC(=O)OCc2cccnc2)cc1 = 5.82

----------
tested on: NCI-H441; assay: cells; type: functional, cell-based; conditions: Homo sapiens;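 further: growth inhibition of NCI-H441 cells, read out with a cell viability assay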
Description: SANGER: Inhibition of human NCI-H441 cell growth in a cell viability assay.
pIC50: −log10 of the molar value.
measurement_label: pIC50

* O=C1NC(=O)c2c1c(-c1ccccc1Cl)cc1[nH]c3ccc(O)cc3c21 | < 5.70
* CS(=O)(=O)N1CCN(Cc2cc3nc(-c4cccc5[nH]ncc45)nc(N4CCOCC4)c3s2)CC1 | < 5.40
* CC1(C)CCC(c2ccc(Cl)cc2)=C(CN2CCN(c3ccc(C(=O)NS(=O)(=O)c4ccc(N[C@H](CCN5CCOCC5)CSc5ccccc5)c(S(=O)(=O)C(F)(F)F)c4)cc3)CC2)C1 | < 5.70
* O=S(=O)(O)c1ccc2cc(/N=N/c3cc(S(=O)(=O)O)c4cccnc4c3O)ccc2c1 | < 4.80
* COc1ccc(-c2cc3nccn3c(Nc3ncccc3C(N)=O)n2)cc1OC | 5.25
* C/C(=C\c1csc(C)n1)[C@@H]1C[C@@H]2O[C@]2(C)CCC[C@H](C)[C@H](O)[C@@H](C)C(=O)C(C)(C)[C@@H](O)CC(=O)O1 | 8.60
* NC1(c2ccc(-c3nc4ccn5c(=O)[nH]nc5c4cc3-c3ccccc3)cc2)CCC1 | < 5.40
* NC(=O)c1ccc(N(C(N)=O)c2c(F)cccc2F)nc1-c1ccc(F)cc1F | < 5.70
* CN(C)CCOc1ccc(-c2nc(-c3ccncc3)c(-c3ccc4c(c3)CC/C4=N\O)[nH]2)cc1 | < 5.30
* CC1=C(/C=C/C(C)=C/C=C/C(C)=C/C(=O)O)C(C)(C)CCC1 | < 5.00

----------
system: CPC-N; assay: cells; format: functional, cell-based, Homo sapiens; details: cpc-n;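 further: growth inhibition of CPC-N cells, with a cell viability assay as the readout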
Description: SANGER: Inhibition of human CPC-N cell growth in a cell viability assay.
Where a SMILES comes first, the peptide text is derived from it. The star is where a group is joined. Cbz = O=C(OCc1ccccc1)*
measurement_label: IC50

• CC(C)C[C@@H](C=O)NC(=O)[C@H](CC(C)C)NC(=O)[C@H](CC(C)C)NC(=O)OCc1ccccc1 [MG-132] (Cbz-Leu-Leu-Leu-aldehyde) = > 1000 nM

----------
tested on: TK-10; test: cells; type: functional, cell-based, Homo sapiens; conditions: Homo sapiens, TK-10;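 further: growth inhibition of TK-10 cells, read out in a cell viability assay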
Description: SANGER: Inhibition of human TK10 cell growth in a cell viability assay.
pIC50: −log10 of the molar value.
Measured pIC50 of individual entries
measurement_label: pIC50

• COc1cc(N2CCC(N3CCN(C)CC3)CC2)ccc1Nc1ncc(Cl)c(Nc2ccccc2S(=O)(=O)C(C)C)n1 [TAE-684] = 5.98
• CCCCCCCCCCCC1=C(O)C(=O)C=C(O)C1=O [EMBELIN] = < 4.49
• NC(=O)c1cccc(-c2cc(Nc3ccc(OC(F)(F)F)cc3)ncn2)c1 = < 5.89
• COc1ccc(-c2cc3nccn3c(Nc3ncccc3C(N)=O)n2)cc1OC = 5.16
• COc1ccc(N(C(=O)Oc2c(C)cccc2C)c2ccnc(Nc3ccc(N4CCN(C)CC4)cc3)n2)c(OC)c1 = 5.96
• CN(C)CCOc1ccc(-c2nc(-c3ccncc3)c(-c3ccc4c(c3)CC/C4=N\O)[nH]2)cc1 [SB590885] = < 5.30
• Cc1ccc(C(=O)Nc2ccc(CN3CCN(C)CC3)c(C(F)(F)F)c2)cc1C#Cc1cnc2cccnn12 [PONATINIB] = < 6.29
• C[C@@H](Oc1cc(-c2cnn(C3CCNCC3)c2)cnc1N)c1c(Cl)ccc(F)c1Cl [CRIZOTINIB] = < 5.70

----------
tested on: SH-4; assay: cells; format: functional, cell-based; settings: Homo sapiens
Description: SANGER: Inhibition of human SH-4 cell growth in a cell viability assay.
Measured IC50 of individual entries
measurement_label: IC50

- OC[C@H](Cc1ccccc1)Nc1nc(Oc2ccc3c(c2)CCC3)nc2c1ncn2Cc1ccc(-c2ccccc2)cc1: > 10200 nM
- COc1ccc(N(C(=O)Oc2c(C)cccc2C)c2ccnc(Nc3ccc(N4CCN(C)CC4)cc3)n2)c(OC)c1: 2120 nM
- COc1ccc(-c2cc3nccn3c(Nc3ncccc3C(N)=O)n2)cc1OC: > 8000 nM
- NC(=O)c1cccc(-c2cc(Nc3ccc(OC(F)(F)F)cc3)ncn2)c1: > 1280 nM
- C[C@@H](Oc1cc(-c2cnn(C3CCNCC3)c2)cnc1N)c1c(Cl)ccc(F)c1Cl [CRIZOTINIB]: > 2000 nM
- Cc1cc(N2CCOCC2)cc2[nH]c(-c3c(NC[C@@H](O)c4cccc(Cl)c4)cc[nH]c3=O)nc12: 882 nM

----------
tested on: SK-HEP1; assay: cells; format: functional, cell-based, SK-HEP-1; settings: Homo sapiens;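 further: cell viability readout used to quantify reduction in proliferation of human SK-HEP-1 cells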
Description: SANGER: Inhibition of human SK-HEP-1 cell growth in a cell viability assay.
measurement_label: IC50

- COC(=O)[C@H](CCSC)NC(=O)c1ccc(NC[C@@H](N)CS)cc1-c1ccccc1: > 1.02 µM
- NC1(c2ccc(-c3nc4ccn5c(=O)[nH]nc5c4cc3-c3ccccc3)cc2)CCC1: > 4 µM
- O=C1NC(=O)c2c1c(-c1ccccc1Cl)cc1[nH]c3ccc(O)cc3c21: > 2 µM
- O=S(=O)(O)c1ccc2cc(/N=N/c3cc(S(=O)(=O)O)c4cccnc4c3O)ccc2c1: > 16 µM
- CN(NC(=O)CC(=O)NN(C)C(=S)c1ccccc1)C(=S)c1ccccc1: > 0.2 µM
- CCCCCCCCCCCC1=C(O)C(=O)C=C(O)C1=O: 9.58 µM

----------
test system: P30-OHK; experiment: cells; format: functional, cell-based, Homo sapiens; conditions: Homo sapiens, P30-OHK
Description: SANGER: Inhibition of human P30-OHK cell growth in a cell viability assay.
Measured IC50 of individual entries
measurement_label: IC50

• CN(C)CCOc1ccc(-c2nc(-c3ccncc3)c(-c3ccc4c(c3)CC/C4=N\O)[nH]2)cc1 = > 5000 nM
• O=S(=O)(O)c1ccc2cc(/N=N/c3cc(S(=O)(=O)O)c4cccnc4c3O)ccc2c1 = > 16000 nM
• NC(=O)c1cccc(-c2cc(Nc3ccc(OC(F)(F)F)cc3)ncn2)c1 = > 1280 nM
• CC1=C(/C=C/C(C)=C/C=C/C(C)=C/C(=O)O)C(C)(C)CCC1 = > 10000 nM
• COc1ccc(-c2cc3nccn3c(Nc3ncccc3C(N)=O)n2)cc1OC = 427 nM
• Cc1cc(N2CCOCC2)cc2[nH]c(-c3c(NC[C@@H](O)c4cccc(Cl)c4)cc[nH]c3=O)nc12 = > 5120 nM
• C/C(=C\c1csc(C)n1)[C@@H]1C[C@@H]2O[C@]2(C)CCC[C@H](C)[C@H](O)[C@@H](C)C(=O)C(C)(C)[C@@H](O)CC(=O)O1 = 4.49 nM

----------
system: NB13; assay: cells; format: functional, cell-based, Homo sapiens; conditions: Homo sapiens, NB13;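 further: cell viability readout measuring growth inhibition of human NB13 cells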
Description: SANGER: Inhibition of human NB13 cell growth in a cell viability assay.
pIC50: −log10 of the molar value.
measurement_label: pIC50

• CC(C)C[C@H](NC(=O)[C@H](Cc1ccccc1)NC(=O)c1cnccn1)B(O)O [BORTEZOMIB] = 8.70
• COc1ccc(-c2cc3nccn3c(Nc3ncccc3C(N)=O)n2)cc1OC = 5.49
• O=C1NC(=O)c2c1c(-c1ccccc1Cl)cc1[nH]c3ccc(O)cc3c21 = 6.02
• CN(NC(=O)CC(=O)NN(C)C(=S)c1ccccc1)C(=S)c1ccccc1 [ELESCLOMOL] = 7.64
• NC(=O)Nc1cc(-c2cccc(F)c2)sc1C(=O)N[C@H]1CCCNC1 [AZD-7762] = 6.27

----------
Measured pIC50 of individual entries
test system: NCCIT; test: SANGER: Inhibition of human NCCIT cell growth in a cell viability assay.; type: functional, cell-based; details: Homo sapiens, NCCIT
pIC50: −log10 of the molar value.
measurement_label: pIC50

* COC(=O)[C@H](CCSC)NC(=O)c1ccc(NC[C@@H](N)CS)cc1-c1ccccc1 | < 5.99
* C[C@@H](Oc1cc(-c2cnn(C3CCNCC3)c2)cnc1N)c1c(Cl)ccc(F)c1Cl | < 5.70
* COc1cc(N2CCC(N3CCN(C)CC3)CC2)ccc1Nc1ncc(Cl)c(Nc2ccccc2S(=O)(=O)C(C)C)n1 | < 5.70

----------
Measured IC50 of individual entries
system: SW 954; test: cells; format: functional, cell-based, Homo sapiens; conditions: Homo sapiens, SW 954;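 further: growth inhibition of SW954 human cancer cells, read out as cell viability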
Description: SANGER: Inhibition of human SW954 cell growth in a cell viability assay.
measurement_label: IC50

- CN(C)CCOc1ccc(-c2nc(-c3ccncc3)c(-c3ccc4c(c3)CC/C4=N\O)[nH]2)cc1: > 5 µM
- OC[C@H](Cc1ccccc1)Nc1nc(Oc2ccc3c(c2)CCC3)nc2c1ncn2Cc1ccc(-c2ccccc2)cc1: > 10.2 µM
- COc1ccc(-c2cc3nccn3c(Nc3ncccc3C(N)=O)n2)cc1OC: > 8 µM
- CC(C)C[C@H](NC(=O)[C@H](Cc1ccccc1)NC(=O)c1cnccn1)B(O)O: 0.0029 µM

Cited source for all entries: ChEMBL document CHEMBL1201861
